Assay: Pharmacokinetic parameters for Levofloxacin evaluated after multiple oral or IV administration of 250, 500 or 750 mg Levofloxacin, to male and/or female subjects of variable age ranges and health status.
Type: ADME, organism-based
Design: dose 500 mg, dose 750 mg, dose 250 mg, route iv, route oral
Details: human, in vivo, iv; read-out: CL_renal

{"columns": ["STRUCTURE", "CL renal, mL/min"],
 "data": [
  ["C[C@H]1COc2c(N3CCN(C)CC3)c(F)cc3c(=O)c(C(=O)O)cn1c23.C[C@H]1COc2c(N3CCN(C)CC3)c(F)cc3c(=O)c(C(=O)O)cn1c23.O", 99]
]}

---

Assay: Pharmacokinetic parameters for Levofloxacin evaluated after oral or IV single dose administration of 250, 500 or 750 mg Levofloxacin to male and/or female subjects of variable age ranges and health status.
Format: ADME, organism-based
Set-up: dose 250 mg, dose 500 mg, dose 750 mg, route oral, route iv
Conditions: human, in vivo, iv

{"columns": ["STRUCTURE", "half-life / min"],
 "data": [
  ["C[C@H]1COc2c(N3CCN(C)CC3)c(F)cc3c(=O)c(C(=O)O)cn1c23.C[C@H]1COc2c(N3CCN(C)CC3)c(F)cc3c(=O)c(C(=O)O)cn1c23.O", 384]
]}

---

Test: Pharmacokinetic parameters for Levofloxacin evaluated after multiple oral or IV administration of 250, 500 or 750 mg Levofloxacin, to male and/or female subjects of variable age ranges and health status.
Format: ADME, organism-based
Set-up: dose 500 mg, dose 750 mg, dose 250 mg, route iv, route oral
Conditions: human, in vivo, po

{"columns": ["COMPOUND", "CL/F, mL/min"],
 "data": [
  ["C[C@H]1COc2c(N3CCN(C)CC3)c(F)cc3c(=O)c(C(=O)O)cn1c23.C[C@H]1COc2c(N3CCN(C)CC3)c(F)cc3c(=O)c(C(=O)O)cn1c23.O [LEVOFLOXACIN]", 175]
]}

---

Assay: Pharmacokinetic parameters for Levofloxacin evaluated after multiple oral or IV administration of 250, 500 or 750 mg Levofloxacin, to male and/or female subjects of variable age ranges and health status.
Type: ADME, organism-based
Design: dose 500 mg, dose 750 mg, dose 250 mg, route iv, route oral
Conditions: human, in vivo, po

{"columns": ["STRUCTURE", "UNIT DESCRIPTOR", "Tmax"],
 "data": [
  ["C[C@H]1COc2c(N3CCN(C)CC3)c(F)cc3c(=O)c(C(=O)O)cn1c23.C[C@H]1COc2c(N3CCN(C)CC3)c(F)cc3c(=O)c(C(=O)O)cn1c23.O", "h", 1.4]
]}

---

Assay: Pharmacokinetic parameters for Levofloxacin evaluated after oral or IV single dose administration of 250, 500 or 750 mg Levofloxacin to male and/or female subjects of variable age ranges and health status.
Format: ADME, organism-based
Set-up: dose 250 mg, dose 500 mg, dose 750 mg, route oral, route iv
Conditions: human, in vivo, iv
QUANTITY NAME: Tmax (h)

{"columns": ["STRUCTURE", "REPORTED MEASUREMENT"],
 "data": [
  ["C[C@H]1COc2c(N3CCN(C)CC3)c(F)cc3c(=O)c(C(=O)O)cn1c23.C[C@H]1COc2c(N3CCN(C)CC3)c(F)cc3c(=O)c(C(=O)O)cn1c23.O", 1]
]}

---

Experiment: Pharmacokinetic parameters for Levofloxacin evaluated after multiple oral or IV administration of 250, 500 or 750 mg Levofloxacin, to male and/or female subjects of variable age ranges and health status.
Type: ADME, organism-based
Design: dose 500 mg, dose 750 mg, dose 250 mg, route iv, route oral
Details: human, in vivo, po

{"columns": ["COMPOUND", "half-life"],
 "data": [
  ["C[C@H]1COc2c(N3CCN(C)CC3)c(F)cc3c(=O)c(C(=O)O)cn1c23.C[C@H]1COc2c(N3CCN(C)CC3)c(F)cc3c(=O)c(C(=O)O)cn1c23.O [LEVOFLOXACIN]", "8.8 h"]
]}

---

Assay: Pharmacokinetic parameters for Levofloxacin evaluated after multiple oral or IV administration of 250, 500 or 750 mg Levofloxacin, to male and/or female subjects of variable age ranges and health status.
Format: ADME, organism-based
Design: dose 500 mg, dose 750 mg, dose 250 mg, route iv, route oral
Details: human, in vivo, po
QUANTITY NAME: Vd/F (L)

{"columns": ["STRUCTURE", "UNIT DESCRIPTOR", "REPORTED MEASUREMENT"],
 "data": [
  ["C[C@H]1COc2c(N3CCN(C)CC3)c(F)cc3c(=O)c(C(=O)O)cn1c23.C[C@H]1COc2c(N3CCN(C)CC3)c(F)cc3c(=O)c(C(=O)O)cn1c23.O", "L", 102]
]}

---

Assay: Pharmacokinetic parameters for Levofloxacin evaluated after multiple oral or IV administration of 250, 500 or 750 mg Levofloxacin, to male and/or female subjects of variable age ranges and health status.
Format: ADME, organism-based
Design: dose 500 mg, dose 750 mg, dose 250 mg, route iv, route oral
Settings: human, in vivo, po; read-out: CL_renal
QUANTITY NAME: CL renal (mL/min)

{"columns": ["COMPOUND", "REPORTED MEASUREMENT"],
 "data": [
  ["C[C@H]1COc2c(N3CCN(C)CC3)c(F)cc3c(=O)c(C(=O)O)cn1c23.C[C@H]1COc2c(N3CCN(C)CC3)c(F)cc3c(=O)c(C(=O)O)cn1c23.O [LEVOFLOXACIN]", 116]
]}

---

Assay: Pharmacokinetic parameters for Levofloxacin evaluated after multiple oral or IV administration of 250, 500 or 750 mg Levofloxacin, to male and/or female subjects of variable age ranges and health status.
Type: ADME, organism-based
Design: dose 500 mg, dose 750 mg, dose 250 mg, route iv, route oral
Conditions: human, in vivo, iv

{"columns": ["STRUCTURE", "UNIT DESCRIPTOR", "half-life"],
 "data": [
  ["C[C@H]1COc2c(N3CCN(C)CC3)c(F)cc3c(=O)c(C(=O)O)cn1c23.C[C@H]1COc2c(N3CCN(C)CC3)c(F)cc3c(=O)c(C(=O)O)cn1c23.O", "h", 7.9]
]}

---

Assay: Pharmacokinetic parameters for Levofloxacin evaluated after oral or IV single dose administration of 250, 500 or 750 mg Levofloxacin to male and/or female subjects of variable age ranges and health status.
Type: ADME, organism-based
Set-up: dose 250 mg, dose 500 mg, dose 750 mg, route oral, route iv
Conditions: human, in vivo, iv; read-out: CL_renal

{"columns": ["STRUCTURE", "CL renal, mL/min"],
 "data": [
  ["C[C@H]1COc2c(N3CCN(C)CC3)c(F)cc3c(=O)c(C(=O)O)cn1c23.C[C@H]1COc2c(N3CCN(C)CC3)c(F)cc3c(=O)c(C(=O)O)cn1c23.O", 112]
]}
